# test.system: GluR5 receptor (Homo sapiens)
# Sequence (P39086 31-918): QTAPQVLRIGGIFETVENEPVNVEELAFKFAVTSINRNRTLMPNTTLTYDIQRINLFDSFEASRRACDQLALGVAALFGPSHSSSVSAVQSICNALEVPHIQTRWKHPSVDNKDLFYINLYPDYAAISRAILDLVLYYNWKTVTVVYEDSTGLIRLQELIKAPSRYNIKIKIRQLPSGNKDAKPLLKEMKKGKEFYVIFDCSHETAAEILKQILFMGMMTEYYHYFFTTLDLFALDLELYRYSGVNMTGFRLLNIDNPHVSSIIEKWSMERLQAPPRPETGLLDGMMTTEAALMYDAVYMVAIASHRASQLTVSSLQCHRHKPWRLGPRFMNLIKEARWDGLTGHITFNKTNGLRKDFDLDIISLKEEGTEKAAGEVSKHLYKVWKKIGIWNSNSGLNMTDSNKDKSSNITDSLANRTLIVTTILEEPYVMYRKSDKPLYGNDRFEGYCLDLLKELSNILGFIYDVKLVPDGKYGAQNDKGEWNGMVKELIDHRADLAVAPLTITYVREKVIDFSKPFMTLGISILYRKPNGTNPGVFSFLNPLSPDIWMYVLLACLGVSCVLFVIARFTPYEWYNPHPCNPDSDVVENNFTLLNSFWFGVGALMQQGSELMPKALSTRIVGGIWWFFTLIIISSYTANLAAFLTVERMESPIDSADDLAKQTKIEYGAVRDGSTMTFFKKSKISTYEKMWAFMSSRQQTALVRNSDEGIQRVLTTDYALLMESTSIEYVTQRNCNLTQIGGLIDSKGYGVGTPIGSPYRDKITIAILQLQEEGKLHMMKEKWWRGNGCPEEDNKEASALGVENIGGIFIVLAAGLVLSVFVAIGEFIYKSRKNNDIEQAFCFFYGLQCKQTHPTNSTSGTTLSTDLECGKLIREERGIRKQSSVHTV
# experiment.summary: GluR5 functional assay: inhibition of domoate-induced increase in Cai (FLIPR)
# condition.set: HEK 293 cells stably expressing GluR5; domoate 2 μM; Fluo-4 FLIPR, 25° C.
observation.type: IC50 (µM)
Give your result in µM as a bare value.

query: What does the data say about its IC50? Entry: O=C(Nc1ccc2ccccc2c1)Nc1cc(Cl)ccc1C(=O)O [Compound E2]
result: 1.2

query: Need IC50 of Cc1cc(S(=O)(=O)O)c(NC(=O)Nc2cccc(Br)c2)cc1Cl [Compound 1a] , thanks.
result: 1.1

query: Quick one: IC50 for O=C(Nc1cccc(Cl)c1)Nc1cc(Cl)ccc1C(=O)O [Compound C14] ?
result: 1.3
